The reported measurements were obtained from PubChem BioAssay AID2060890.

System: LG0703-F948-PDC complex spheroid viability;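 further: spheroids exposed to agents for 7 days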
Assay: Anticancer human tumor LG0703-F948-PDC patient-derived lung adenocarcinoma cell line growth inhibition [RAS]; active means viability on the fitted dose curve at most 10% of control; inactive means the rest
Details: second compound 0.0949 µM; first compound 0.1 µM
Allowed answers: yes (active), no (inactive)

[[record]]
compound = "CC(=O)OC12COC1CC(O)C1(C)C(=O)C(O)C3=C(C)C(OC(=O)C(O)C(NC(=O)OC(C)(C)C)c4ccccc4)CC(O)(C(OC(=O)c4ccccc4)C21)C3(C)C (stereo not drawn) + CCn1c(-c2cc(N3CCN(C)CC3)cnc2C(C)OC)c2c3cc(ccc31)-c1csc(n1)CC(NC(=O)C1CC1C)C(=O)N1CCCC(N1)C(=O)OCC(C)(C)C2"
tested_target = "LG0703-F948-PDC complex spheroid viability"
label = "yes"

[[record]]
compound = "CC(C)n1nc(-c2ccc3oc(N)nc3c2)c2c(N)ncnc21 + CCn1c(-c2cccnc2C(C)OC)c2c3cc(ccc31)N1CCOC(CC(NC(=O)C(C(C)C)N(C)C(=O)C3(F)CCN(C(=O)C#CC(C)(C)N(C)C)CC3)C(=O)N3CCCC(N3)C(=O)OCC(C)(C)C2)C1"
tested_target = "LG0703-F948-PDC complex spheroid viability"
label = "no"

[[record]]
compound = "O=C(c1ccc(F)c(F)c1Nc1ccc(I)cc1F)N1CC(O)([C@@H]2CCCCN2)C1 + CCn1c(-c2cc(N3CCN(C)CC3)cnc2C(C)OC)c2c3cc(ccc31)-c1csc(n1)CC(NC(=O)C1CC1C)C(=O)N1CCCC(N1)C(=O)OCC(C)(C)C2"
tested_target = "LG0703-F948-PDC complex spheroid viability"
label = "yes"

[[record]]
compound = "CCC(CC)c1cc(NC2CCC(N)C2)n2nccc2n1 (stereo not drawn) + CCn1c(-c2cccnc2C(C)OC)c2c3cc(ccc31)N1CCOC(CC(NC(=O)C(C(C)C)N(C)C(=O)C3(F)CCN(C(=O)C#CC(C)(C)N(C)C)CC3)C(=O)N3CCCC(N3)C(=O)OCC(C)(C)C2)C1"
tested_target = "LG0703-F948-PDC complex spheroid viability"
label = "no"

[[record]]
compound = "Nc1ccn(C2OC(CO)C(O)C2(F)F)c(=O)n1 (stereo not drawn) + CCn1c(-c2cccnc2C(C)OC)c2c3cc(ccc31)N1CCOC(CC(NC(=O)C(C(C)C)N(C)C(=O)C3(F)CCN(C(=O)C#CC(C)(C)N(C)C)CC3)C(=O)N3CCCC(N3)C(=O)OCC(C)(C)C2)C1"
tested_target = "LG0703-F948-PDC complex spheroid viability"
label = "no"


Problem: Assay outcome for CC1(O)CCCC1n1c(=O)c(C(F)F)cc2cnc(NC3CCN(S(C)(=O)=O)CC3)nc21 (stereo not drawn) + CCn1c(-c2cccnc2C(C)OC)c2c3cc(ccc31)N1CCOC(CC(NC(=O)C(C(C)C)N(C)C(=O)C3(F)CCN(C(=O)C#CC(C)(C)N(C)C)CC3)C(=O)N3CCCC(N3)C(=O)OCC(C)(C)C2)C1 : what was it?
Result: no

Problem: Which outcome was entered for the compound CC(Nc1ccc2c(c1)OCCn1cc(N3C(=O)OCC3C(F)F)nc1-2)C(N)=O (stereo not drawn) + CCn1c(-c2cc(N3CCN(C)CC3)cnc2C(C)OC)c2c3cc(ccc31)-c1csc(n1)CC(NC(=O)C1CC1C)C(=O)N1CCCC(N1)C(=O)OCC(C)(C)C2 in this test?
Result: yes

Problem: Answer briefly: the call reported for O=C(c1ccc(F)c(F)c1Nc1ccc(I)cc1F)N1CC(O)([C@@H]2CCCCN2)C1 + CCn1c(-c2cccnc2C(C)OC)c2c3cc(ccc31)N1CCOC(CC(NC(=O)C(C(C)C)N(C)C(=O)C3(F)CCN(C(=O)C#CC(C)(C)N(C)C)CC3)C(=O)N3CCCC(N3)C(=O)OCC(C)(C)C2)C1 in this assay.
Result: no
